Attribution: PubChem BioAssay

- assay-info: growth suppression of beta-catenin knockout HCT116, pilot screen, human colon tumor cells (AID 823);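 further: 0% = wells killed by 20 µM Hyamine and 100% = untreated DMSO cell wells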
- run-conditions: CellTiter-Glo, 60 h, at 10 µM, active compounds read low
Results filed as inconclusive are left out.
Entries and their measured viability follow.
measure-name: viability (%)

| molecule | obs-value |
| --- | --- |
| COc1ccc(C(=O)Nc2nncs2)cc1S(=O)(=O)N1CC(c2ccccc2)CC1=O (stereo not drawn) | 101 |
| Cc1cccc(N(C(=O)Nc2ccccc2)C2=NCC(C)S2)c1 (stereo not drawn) | 103 |
| c1ccc2c(c1)nc1n2CCN1CCNC1CCCCC1 | 94.2 |

* * *

- assay-info: Restrictive medium S. cerevisiae growth inhibition, OD615, pilot screen of yeast lifespan reduction project, restrictive growth control (AID 706);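 further: modified DeaD lifespan yeast strain shifted to restrictive glucose medium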
- run-conditions: OD615, 48 h, at 10 µM, active compounds read high
measure-name: growth inhibition (%)

| compound | reading-unit | obs-value |
| --- | --- | --- |
| O=C1Nc2ccccc2C(O)(C(=O)NCc2ccco2)N1c1ccc(Cl)cc1 (configuration not stated) | % | -16.5 |
| O=C(Cc1ccccc1)NCCn1ccc2ccccc21 | % | -13.2 |
| Cc1cccc(NC(=O)c2cccnc2)c1 | % | 4.14 |
| CCOc1ccccc1NC(=O)C1CCN(S(=O)(=O)c2ccc(OC)c(OC)c2)CC1 | % | -2.79 |
| Cc1ccc2cc(CCNS(=O)(=O)c3ccc(F)cc3)c(=O)[nH]c2c1 | % | -8.69 |
| O=S(=O)(NCc1ccc2c(c1)OCO2)c1cnc[nH]1 | % | 0.305 |
| COc1ccc(Cc2nc(-c3ccc(Br)o3)no2)cc1OC | % | -3.81 |

* * *

Entries and their measured inhibition follow.
- assay-info: inhibitors of the yeast RAM network, pilot screen, dse1pr::URA3 reporter, 5-FOA selection (AID 869);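 further: 0% = DMSO wells with no growth and 100% = 10 µM 1-NA-PP1 with full growth; RAM network block rescues cells from 5-FOA so hits raise OD615 growth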
- run-conditions: S. cerevisiae dse1pr::URA3 5-FOA growth, OD615, 2 d; at 10 µM; active compounds read high; strain carries analog-sensitive mutant Cbk1 kinase

| compound | inhibition, % |
| --- | --- |
| Cc1ccc2[nH]c(=O)c(-c3noc(C(C)C)n3)cc2c1 | 0.48 |
| COC(=O)c1cn(NC(=O)CC2CCCCC2)c(=O)c2ccccc12 | 0.24 |
| COc1ccc(C(=O)NCC(c2cccnc2)N2CCN(c3ccccc3OC)CC2)cc1OC (stereo unspecified) | 1.16 |
| C=CCOc1cccc(C2c3c(oc4ccc(F)cc4c3=O)C(=O)N2CCCN2CCOCC2)c1 (stereo unspecified) | -0.045 |
| Brc1ccc(OCCOCCN2CCOCC2)cc1 | 0.12 |
| CC1=C(C(N)=O)C(c2ccccc2)n2nc(-c3cccs3)nc2N1 (stereo unspecified) | 2.46 |

* * *

- assay-info: viability gain of MRP-1-high H69AR cells under doxorubicin, pilot screen, MRP-1 activator project, CellTiter-Glo, duplicate (AID 807);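 further: compound pretreatment 18-22 h then 72 h combined with doxorubicin; 0% = doxorubicin alone and 100% = vehicle without doxorubicin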
- run-conditions: H69AR viability with doxorubicin, CellTiter-Glo luminescence; at 10 µM; active compounds read high

| molecule | viability increase [%] |
| --- | --- |
| Cc1ccnc(N2C(=O)c3ccccc3C2Nc2ccc3c(c2)OCCO3)c1 (stereo unspecified) | 1.16 |
| O=C(CCN1CCN(CCO)CC1)Nc1ccc(F)c(F)c1 | -2.29 |
| O=C(CSc1nnc(-c2ccccc2Cl)o1)N1CCCCC1 | 1.04 |
| CCN1C(=O)c2ccccc2Sc2ccc(C(=O)NCCN3CCOCC3)cc21 | -0.43 |
| CS/C(=N\S(=O)(=O)c1ccc(N)cc1)NS(=O)(=O)c1cccs1 | -0.88 |
| N#CCCn1c(C(C#N)(CCC#N)CCC#N)nc2ccccc21 | -0.72 |
| Cc1c(C(=O)NCCN2CCOCC2)oc2ccc(S(=O)(=O)N3CCCCCC3)cc12 | -2.1 |
| O=C(c1cc(-c2cccc(O)c2)on1)N1CCCCC1 | 0.08 |
| CC12C(=O)N(c3cccc4cccnc34)C(=O)C1C1C=CC2C1 (stereo unspecified) | -1.54 |
| O=C(Nc1scc(-c2cccs2)c1C(=O)O)c1cccs1 | 3.64 |
| CC1Oc2ccccc2C=C1C1/C(=C(/O)c2ccccc2)C(=O)C(=O)N1CCCN(C)C (stereo unspecified) | -2.78 |
| CCOC(=O)c1csc(NC(=O)C(C)(C)C)n1 | 2.71 |
| Cc1oc2c(c(=O)c1C)C(=O)CC(c1ccccc1)C2 (stereo unspecified) | -3.41 |
| c1ccc(-c2cnc(-c3cccnc3)o2)cc1 | -4.72 |
| COc1ccc(OC)c(NC(=O)CSc2nnc(Cn3c(=O)sc4ccccc43)n2C)c1 | -2.91 |
| O=c1oc2ccccc2n1Cc1ccccc1Cl | -0.37 |
